Ki values for Carbonic anhydrase 2 (Homo sapiens), compiled from several publications.
Endpoint name: Ki (nM)

Consider the following illustrative entries.
CC(F)CN(CCCCN1C(=O)c2ccccc2C1=O)S(=O)(=O)c1ccc([N+](=O)[O-])cc1 (stereo not given); 34000
CC(=O)Sc1ccccc1C(=O)O; 64300
N#Cc1cccc(C2SCCC(=O)N2c2ccc(S(N)(=O)=O)cc2)c1 (racemic); 14.6

[a] NS(=O)(=O)c1ccc(N2C(=O)CCSC2c2ccc(F)cc2)cc1 (racemic)
[b] NS(=O)(=O)c1ccc(/N=C/c2ccc(Cl)cc2)cc1
(Q) Hi! Which is lower in terms of Ki, the first one a or the second one b ? Respond using the label that marks the chosen record.
(A) a

====

pKi: −log10 of the molar value.
pKi values for Carbonic anhydrase 2 (Homo sapiens), compiled from several publications.
Endpoint name: pKi

NS(=O)(=O)c1ccc(NC2=CC(c3ccc(F)cc3)N(c3ccc(S(N)(=O)=O)cc3)C2=O)cc1 (centres undefined); 7.63
N#Cc1ccc(C2C=C(Nc3ccc(S(N)(=O)=O)cc3)C(=O)N2c2ccc(S(N)(=O)=O)cc2)cc1 (centres undefined); 8.03
NS(=O)(=O)c1ccc(NC2=CC(c3ccccc3)N(c3ccc(S(N)(=O)=O)cc3)C2=O)cc1 (centres undefined); 8.13
COc1cc(C2C=C(Nc3ccc(S(N)(=O)=O)cc3)C(=O)N2c2ccc(S(N)(=O)=O)cc2)cc(OC)c1O (centres undefined); 8.21
NS(=O)(=O)c1ccc(NC2=CC(c3ccc(Br)cc3)N(c3ccc(S(N)(=O)=O)cc3)C2=O)cc1 (centres undefined); 7.24

[I] CC(F)CNCCCCN1C(=O)c2ccccc2C1=O (centres undefined)
[II] NS(=O)(=O)c1ccc(N2C(=O)CCSC2c2ccc([N+](=O)[O-])cc2)cc1 (racemic)
[III] NS(=O)(=O)c1ccc(/N=C/c2ccc([N+](=O)[O-])cc2)cc1
(Q) Task for the reader: rank each entry by its pKi, from the minimum upward. Reply with the labels, ordered as the question asks.
(A) II, III, I
(II: 7.10, III: 7.59, I: 7.92)
